organism: Rattus norvegicus; assay: DrugMatrix - Regimen: Daily Repeat; type: toxicity, organism-based, Sprague-Dawley; parameters: regimen Daily Repeat, gender Male, age 6-8 weeks; settings: in vivo, po, 0 mg/kg, […], tissue Blood, route oral GAVAGE, dose level Control, time 28 day, vehicle .5 % CMC
OBSERVABLE: ABSOLUTE EOSINOPHIL
For clarity, give the value followed by its unit.

For record Cc1ccc2cc3c(ccc4ccccc43)c3c2c1CC3 the listed ABSOLUTE EOSINOPHIL is 54 cells/µL

====

Hi there, I'd appreciate the recorded NUCLEATED RED BLOOD CELLS for every entry that follows.
species on record: Rattus norvegicus; test: DrugMatrix - Regimen: Daily Repeat; type: toxicity, organism-based, Sprague-Dawley; design: regimen Daily Repeat, gender Male, age 6-8 weeks; conditions: in vivo, po, 0 mg/kg, 72 h, tissue Blood, route oral GAVAGE, dose level Control, time 3 day, vehicle 100 % WATER

Look over these answered cases.
C=CCC1(C(C)CCC)C(=O)NC(=O)NC1=O (stereo not given) [SECOBARBITAL] : 0.17 /100WBC
Clc1cccc(Cl)c1N=C1NCCN1 [CLONIDINE] : 0 /100WBC
NCCCCCC(=O)O [AMINOCAPROIC ACID] : 0.33 /100WBC
Cc1onc(-c2ccccc2Cl)c1C(=O)N[C@@H]1C(=O)N2[C@@H]1SC(C)(C)[C@@H]2C(=O)O [CLOXACILLIN] : 0.33 /100WBC
C[C@](N)(Cc1ccc(O)c(O)c1)C(=O)O [METHYLDOPA] : 0.17 /100WBC
COCCc1ccc(OCC(O)CNC(C)C)cc1 (stereo not given) [METOPROLOL] : 0 /100WBC

Would you mind listing NUCLEATED RED BLOOD CELLS for each of the following molecules?
1. c1ccc([C@H]2CN3CCSC3=N2)cc1 [LEVAMISOLE]
2. N[C@@H](Cc1ccc(O)c(O)c1)C(=O)O [LEVODOPA]
3. CNNCc1ccc(C(=O)NC(C)C)cc1 [PROCARBAZINE]
4. COc1cc2nc(N3CCN(C(=O)C4COc5ccccc5O4)CC3)nc(N)c2cc1OC (stereo not given) [DOXAZOSIN]

1. 0.17 /100WBC
2. 0 /100WBC
3. 0 /100WBC
4. 0 /100WBC

====

species: Rattus norvegicus; assay: DrugMatrix - Regimen: Daily Repeat; format: toxicity, organism-based, Sprague-Dawley; design: regimen Daily Repeat, gender Male, age 6-8 weeks; settings: in vivo, po, 0 mg/kg, 120 h, tissue Plasma, route oral GAVAGE, dose level Control, time 5 day, vehicle .5 % CMC
OBSERVABLE: TOTAL BILIRUBIN
Provide a numeric answer, followed by its unit.

Please supply TOTAL BILIRUBIN for each of the following items, keeping them in order.
1. CCn1cc(C(=O)O)c(=O)c2cc(F)c(N3CCNCC3)cc21 [NORFLOXACIN]
2. O=C(CCCN1CC=C(n2c(=O)[nH]c3ccccc32)CC1)c1ccc(F)cc1 [DROPERIDOL]
3. Cc1nc2n(c(=O)c1CCN1CCC(c3noc4cc(F)ccc34)CC1)CCCC2 [RISPERIDONE]
4. CC(C)(C)NC(=O)[C@@H]1C[C@@H]2CCCC[C@@H]2CN1C[C@@H](O)[C@H](Cc1ccccc1)NC(=O)[C@H](CC(N)=O)NC(=O)c1ccc2ccccc2n1

["0.18 mg/dL", "0.53 mg/dL", "0.68 mg/dL", "0.2 mg/dL"]

====

species: Rattus norvegicus; assay: DrugMatrix - Regimen: Daily Repeat; type: toxicity, organism-based, Sprague-Dawley; design: regimen Daily Repeat, gender Male, age 6-8 weeks; details: in vivo, po, 0 mg/kg, […], tissue Plasma, route oral GAVAGE, dose level Control, time 14 day, vehicle .5 % CMC
OBSERVABLE: GLUCOSE (mg/dL)
One number for each entry, in mg/dL.

ClC(Cl)Br : 141.17
ClC(Br)Br : 141.17

Return reported GLUCOSE values for all items listed beneath this line.
1. CCOP(=S)(OCC)Oc1nc(Cl)c(Cl)cc1Cl
2. COc1ccc(C(=O)Nc2c(Cl)c[n+]([O-])cc2Cl)c2ccc(C(F)(F)F)nc12

[160, 151.17]

====

species: Rattus norvegicus; test: DrugMatrix - Regimen: Daily Repeat; assay type: toxicity, organism-based, Sprague-Dawley; parameters: regimen Daily Repeat, gender Male, age 6-8 weeks; conditions: in vivo, po, 0 mg/kg, 120 h, tissue Blood, route oral GAVAGE, dose level Control, time 5 day, […]
OBSERVABLE: NUCLEATED RED BLOOD CELLS

Here's what some known entries look like.
O=c1oc2ccccc2c(O)c1Cc1c(O)c2ccccc2oc1=O : 0.17 /100WBC
O=C(O)CCCc1ccc(N(CCCl)CCCl)cc1 : 0 /100WBC
Cc1ccc(-c2cc(C(F)(F)F)nn2-c2ccc(S(N)(=O)=O)cc2)cc1 : 0 /100WBC

Parameter requested: NUCLEATED RED BLOOD CELLS. Apply to each item below.
1. Cc1oncc1C(=O)Nc1ccc(C(F)(F)F)cc1 [LEFLUNOMIDE]
2. C[C@H]1O[C@@H](O[C@H]2[C@@H](O)C[C@H](O[C@H]3[C@@H](O)C[C@H](O[C@H]4CC[C@@]5(C)[C@H](CC[C@@H]6[C@@H]5C[C@@H](O)[C@]5(C)[C@@H](C7=CC(=O)OC7)CC[C@]65O)C4)O[C@@H]3C)O[C@@H]2C)C[C@H](O)[C@@H]1O
3. O=NN(CCCl)C(=O)NC1CCCCC1
4. OC(Cn1cncn1)(Cn1cncn1)c1ccc(F)cc1F
5. C[C@@H]1CN(c2c(F)c(N)c3c(=O)c(C(=O)O)cn(C4CC4)c3c2F)C[C@H](C)N1

1. 0 /100WBC
2. 0.17 /100WBC
3. 0.17 /100WBC
4. 0 /100WBC
5. 0.17 /100WBC

====

organism: Rattus norvegicus; assay: DrugMatrix - Regimen: Daily Repeat; format: toxicity, organism-based, Sprague-Dawley; design: regimen Daily Repeat, gender Male, age 6-8 weeks; conditions: in vivo, po, 0 mg/kg, 120 h, tissue Blood, route oral GAVAGE, dose level Control, time 5 day, vehicle 100 % WATER
With a cut-off of 0.2%, any EOSINOPHIL strictly below it is called yes (1); any EOSINOPHIL meeting it or above is called no (0).

Solved cases (5 shown):
NCCCCCC(=O)O : yes (1)
Clc1cccc(Cl)c1N=C1NCCN1 : yes (1)
C[C@](N)(Cc1ccc(O)c(O)c1)C(=O)O : yes (1)
Cc1onc(-c2ccccc2Cl)c1C(=O)N[C@@H]1C(=O)N2[C@@H]1SC(C)(C)[C@@H]2C(=O)O : yes (1)
C=CCC1(C(C)CCC)C(=O)NC(=O)NC1=O (stereo not given) : no (0)

Consider the molecule CN(C)CCCN1c2ccccc2Sc2ccc(Cl)cc21 . Is its EOSINOPHIL strictly less than 0.2%?
yes (1)

Check if EOSINOPHIL falls below 0.2% for COc1cc2nc(N3CCN(C(=O)C4COc5ccccc5O4)CC3)nc(N)c2cc1OC (stereo not given) .
no (0)

Answer whether the molecule Cn1cc[nH]c1=S has EOSINOPHIL strictly less than 0.2%
yes (1)

Input C[C@H]1c2cccc(O)c2C(=O)C2=C(O)[C@]3(O)C(=O)C(C(N)=O)=C(O)[C@@H](N(C)C)[C@@H]3[C@@H](O)[C@@H]21.O ; condition: EOSINOPHIL strictly below 0.2%. Does it hold?
no (0)

Consider N[C@@H](Cc1ccc(O)c(O)c1)C(=O)O . Does its EOSINOPHIL lie strictly below 0.2%?
no (0)

Check if EOSINOPHIL falls below 0.2% for C[C@H](CS)C(=O)N1CCC[C@H]1C(=O)O .
no (0)

Given CC(O)CO (stereo not given) , is recorded EOSINOPHIL strictly lower than 0.2%?
yes (1)

Could you please tell me whether EOSINOPHIL recorded for c1ccc([C@H]2CN3CCSC3=N2)cc1 is less than 0.2%?
yes (1)

Dear colleague, could you confirm whether EOSINOPHIL of CNNCc1ccc(C(=O)NC(C)C)cc1 falls below 0.2%? Thanks.
yes (1)

====

species: Rattus norvegicus; assay: DrugMatrix - Regimen: Daily Repeat; type: toxicity, organism-based, Sprague-Dawley; parameters: regimen Daily Repeat, gender Male, age 6-8 weeks; settings: in vivo, po, 0 mg/kg, 72 h, tissue Plasma, route oral GAVAGE, dose level Control, time 3 day, […]
OBSERVABLE: CREATININE (mg/dL)
Answers are plain numbers, in mg/dL.

CC(C)(Oc1ccc(Cl)cc1)C(=O)O : 0.21
O=NN(CCCl)C(=O)NC1CCCCC1 : 0.17

Now look at this one.
Quick note, CREATININE for C[C@H]1O[C@@H](O[C@H]2[C@@H](O)C[C@H](O[C@H]3[C@@H](O)C[C@H](O[C@H]4CC[C@@]5(C)[C@H](CC[C@@H]6[C@@H]5C[C@@H](O)[C@]5(C)[C@@H](C7=CC(=O)OC7)CC[C@]65O)C4)O[C@@H]3C)O[C@@H]2C)C[C@H](O)[C@@H]1O landed at 0.13

Origin of values: ChEMBL document CHEMBL3885881
